Target: T1, hIL-18 receptor (hIL-18Rα and hIL-18Rβ) (human, UniProt Q13478 19-541; O95256 20-599)
T1 sequence (looked up) 1: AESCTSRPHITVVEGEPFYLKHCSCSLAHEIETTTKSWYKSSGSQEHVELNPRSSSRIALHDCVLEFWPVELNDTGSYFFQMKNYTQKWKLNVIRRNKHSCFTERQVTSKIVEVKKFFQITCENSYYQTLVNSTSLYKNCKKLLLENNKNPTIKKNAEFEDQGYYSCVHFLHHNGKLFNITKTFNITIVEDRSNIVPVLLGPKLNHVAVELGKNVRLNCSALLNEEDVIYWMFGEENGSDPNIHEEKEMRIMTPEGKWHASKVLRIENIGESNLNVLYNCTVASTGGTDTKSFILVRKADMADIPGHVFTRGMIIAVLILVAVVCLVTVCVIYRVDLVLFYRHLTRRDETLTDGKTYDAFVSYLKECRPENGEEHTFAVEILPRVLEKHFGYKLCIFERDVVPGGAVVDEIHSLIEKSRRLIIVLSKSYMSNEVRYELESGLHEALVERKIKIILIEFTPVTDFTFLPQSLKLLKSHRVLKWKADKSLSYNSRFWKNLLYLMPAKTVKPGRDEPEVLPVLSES
T1 sequence (looked up) 2: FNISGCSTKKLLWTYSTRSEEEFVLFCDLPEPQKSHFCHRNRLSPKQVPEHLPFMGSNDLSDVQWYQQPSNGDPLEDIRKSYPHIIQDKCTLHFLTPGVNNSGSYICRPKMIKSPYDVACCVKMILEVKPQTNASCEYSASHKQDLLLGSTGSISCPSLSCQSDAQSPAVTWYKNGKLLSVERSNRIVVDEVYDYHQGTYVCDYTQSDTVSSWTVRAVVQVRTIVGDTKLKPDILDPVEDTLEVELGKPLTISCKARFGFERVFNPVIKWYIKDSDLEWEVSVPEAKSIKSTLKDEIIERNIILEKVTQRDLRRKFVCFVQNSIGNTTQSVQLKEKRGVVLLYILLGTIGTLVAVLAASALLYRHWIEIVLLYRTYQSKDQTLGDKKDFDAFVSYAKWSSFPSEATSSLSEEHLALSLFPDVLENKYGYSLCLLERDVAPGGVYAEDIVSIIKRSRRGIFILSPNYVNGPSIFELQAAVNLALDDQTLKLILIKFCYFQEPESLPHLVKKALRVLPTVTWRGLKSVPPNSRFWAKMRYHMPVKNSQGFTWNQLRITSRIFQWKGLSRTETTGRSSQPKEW
Experiment: cell-based or functional assay
Lab note: compare EC50 (nM), PBMC assay (hIFNγ release) with 0.05 nM, writing Met if less and Not met if equal or more.

BINDER	GROUP
IL-18 variant polypeptide M24 (ligand) YFPKLRSKLSVIRNLNDQVLFIDQGNRPLFEDMTDSDCRDNAPRTIFIISMYKYSTSRGMAVTISVKCEKISTLSCENKIISFKEMNPPDNIKDTKSDIIFFQRSVPGHDNKMQFESSSYEGYFLACEKERDLFKLILKKEDELGDRSIMFTVQNED	Not met
IL-18 variant polypeptide M21 (ligand) YFPKLRSKLSVIRNLNDQVLFIDQGNRPLFEDMTDSDCRDNAPRTIFIISMYKSSSTRGMAVTISVKCEKISTLSCENKIISFKEMNPPDGIKDTKSDIIFFQSSVPGHDNKMQFESSSYEGYFLACEKERDLFKLILKKEDELGDRSIMFTVQNED	Met
IL-18 variant polypeptide M29 (ligand) YFPKLMSKLSVIRNLNDQVLFIDQGNRPLFEDMTDSDCRDNAPRTIFIISMYKFSDRRGMAVTISVKCEKISTLSCENKIISFKEMNPPDPIKDTKSDIIFFQRSVPGHDNKMQFESSSYEGYFLACEKERDLFKLILKKEDELGDRSIMFTVQNED	Not met

Exercise: Regarding IL-18 variant polypeptide M32 (ligand) YFPKLGSKLSVIRNLNDQVLFIDQGNRPLFEDMTDSDCRDNAPRTIFIISMYKSSSRRGMAVTISVKCEKISTLSCENKIISFKEMNPPDNIKDTKSDIIFFQRSVPGHDNKMQFESSSYEGYFLACEKERDLFKLILKKEDELGDRSIMFTVQNED , kindly confirm whether its EC50 (nM), PBMC assay (hIFNγ release) is beneath 0.05 nM.
Key: Not met

Exercise: Please give the result for IL-18 variant polypeptide M35 (ligand) YFPKLRSKLSVIRNLNDQVLFIDQGNRPLFEDMTDSDCRDNAPRTIFIISMYKGSGARGMAVTISVKCEKISTLSCENKIISFKEMNPPDGIKDTKSDIIFFQRSVPGHDNKMQFESSSYEGYFLACEKERDLFKLILKKEDELGDRSIMFTVQNED too.
Key: Not met

Exercise: Please give the result for IL-18 variant polypeptide M12 (ligand) YFPKLKSKLSVIRNLNDQVLFIDQGNRPLFEDMTDSDCRDNAPRTIFIISMYKGSGARGMAVTISVKCEKISTLSCENKIISFKEMNPPDTIKDTKSDIIFFQRSVPGHDNKMQFESSSYEGYFLACEKERDLFKLILKKEDELGDRSIMFTVQNED too.
Key: Met

Exercise: Please give the result for IL-18 variant polypeptide M36 (ligand) YFPKLSSKLSVIRNLNDQVLFIDQGNRPLFEDMTDSDCRDNAPRTIFIISMYKASDQRGMAVTISVKCEKISTLSCENKIISFKEMNPPDGIKDTKSDIIFFQRSVPGHDNKMQFESSSYEGYFLACEKERDLFKLILKKEDELGDRSIMFTVQNED too.
Key: Not met

The origin of these recorded values is patent US20260092093A1.
